- target: MC4R (Homo sapiens, UniProt P32245)
- Sequence (P32245 whole entry): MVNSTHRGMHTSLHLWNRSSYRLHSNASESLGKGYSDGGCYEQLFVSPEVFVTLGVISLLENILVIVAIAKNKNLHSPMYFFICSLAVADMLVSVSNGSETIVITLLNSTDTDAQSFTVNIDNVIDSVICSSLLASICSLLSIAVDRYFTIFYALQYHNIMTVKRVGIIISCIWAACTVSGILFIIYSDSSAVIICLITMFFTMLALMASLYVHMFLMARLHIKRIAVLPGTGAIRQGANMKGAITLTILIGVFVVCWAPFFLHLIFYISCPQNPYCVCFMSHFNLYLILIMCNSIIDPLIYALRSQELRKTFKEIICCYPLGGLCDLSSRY
- protocol.notes: cAMP assay in CHO cells expressing a human melanocortin receptor
- Format: cell-based
- Parameters: expressed in transfected cells; host or cells: Chinese hamster ovary (CHO) cells
- recorded.conditions: ratio of EC50 hMC-5R / hMC-4R
Numbered stars: 1 amine (or outer) side, 2 acyl side, 3 side chain; on linkers, the order of the positions; unused ones are H or OH. Bridge positions count the residues as written; N and C are the ends. Square brackets hold non-standard residues; d marks the D form. Peptide text beside a SMILES is read from it. ξ: configuration not given here. dPhe(4-Cl) = N[C@H](Cc1ccc(Cl)cc1)C(=O)O; 2Nal = N[C@@H](Cc1ccc2ccccc2c1)C(=O)O; Suc = O=C(CCC(=O)[*:2])[*:1]; ξE = NC(CCC(=O)O)C(=O)O; ξDab = NCCC(N)C(=O)O; ξK = NCCCCC(N)C(=O)O; Ava = NCCCCC(=O)O; GABA = NCCCC(=O)O; βAla = NCCC(=O)O
measurement.label: Selectivity cAMP EC50 5R/4R

Illustrative cases are given below, each with its answer.
IN: What value of measured Selectivity cAMP EC50 5R/4R is listed for N=C(N)NCCC[C@@H]1NC(=O)[C@@H](Cc2ccccc2)NC(=O)[C@H](Cc2c[nH]cn2)NC(=O)CCCNC(=O)CCC(C(N)=O)NC(=O)[C@H](Cc2c[nH]c3ccccc23)NC1=O (stereo partly shown) [Example 7] ([GABA]H[dF]RW[ξE]-NH2; lactam N-6) ?
OUT: 877

IN: Do the same for N=C(N)NCCC[C@@H]1NC(=O)[C@@H](Cc2ccc(Cl)cc2)NC(=O)[C@H](Cc2c[nH]cn2)NC(=O)CCC(=O)NCCCCC(C(N)=O)NC(=O)[C@H](Cc2c[nH]c3ccccc23)NC1=O (stereo partly shown) [Example 4] (H[dPhe(4-Cl)]RW[ξK]-NH2; linker N-5 via Suc) please
OUT: 229.7

IN: Do the same for N=C(N)NCCC[C@@H]1NC(=O)[C@@H](Cc2ccccc2)NC(=O)[C@H](Cc2c[nH]cn2)NC(=O)CCC(=O)NCCCCC(C(N)=O)NC(=O)[C@H](Cc2ccc3ccccc3c2)NC1=O (stereo partly shown) [Example 5] (H[dF]R[2Nal][ξK]-NH2; linker N-5 via Suc) please
OUT: 1351.3

IN: Do the same for N=C(N)NCCC[C@@H]1NC(=O)[C@@H](Cc2ccccc2)NC(=O)[C@H](Cc2c[nH]cn2)NC(=O)CCCCNC(=O)CCC(C(N)=O)NC(=O)[C@H](Cc2c[nH]c3ccccc23)NC1=O (stereo partly shown) [Example 6] ([Ava]H[dF]RW[ξE]-NH2; lactam N-6) please
OUT: 703.7

[P] N=C(N)NCCC[C@@H]1NC(=O)[C@@H](Cc2ccccc2)NC(=O)[C@H](Cc2c[nH]cn2)NC(=O)CCC(=O)NCCCCC(C(N)=O)NC(=O)[C@H](Cc2c[nH]c3ccccc23)NC1=O (stereo partly shown) [Example 1] (H[dF]RW[ξK]-NH2; linker N-5 via Suc)
[Q] N=C(N)NCCC[C@@H]1NC(=O)[C@@H](Cc2ccccc2)NC(=O)[C@H](Cc2c[nH]cn2)NC(=O)CCC(=O)NCCC(C(N)=O)NC(=O)[C@H](Cc2c[nH]c3ccccc23)NC1=O (stereo partly shown) [Example 2] (H[dF]RW[ξDab]-NH2; linker N-5 via Suc)
[R] N=C(N)NCCC[C@@H]1NC(=O)[C@@H](Cc2ccccc2)NC(=O)[C@H](Cc2c[nH]cn2)NC(=O)CCNC(=O)CC[C@@H](C(N)=O)NC(=O)[C@H](Cc2c[nH]c3ccccc23)NC1=O [Example 8] ([βAla]H[dF]RWE-NH2; lactam N-6 (inferred))
IN: Reorder the items by Selectivity cAMP EC50 5R/4R, least to greatest. Answer by listing the labels in the requested order.
OUT: P, Q, R

Taken from patent US20070155660A1.
